Values compiled from paper PMC12587601.

experiment: clinical; details: human, in vivo, po, 100 mg, Observed Cmax of ritonavir, median (interquartile range)
Attribute measured: Cmax (ng/mL)
Provide the reading as a plain figure in ng/mL.

Task item: What measured Cmax goes with CC(C)c1nc(CN(C)C(=O)N[C@H](C(=O)N[C@@H](Cc2ccccc2)C[C@H](O)[C@H](Cc2ccccc2)NC(=O)OCc2cncs2)C(C)C)cs1 ?
Reply: 2760
